Test system: K4 kissing-loop RNA reporter;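 further: bound reporter read as fluorescence of individual clusters on recovered sequencing chips by microscopy, with normalized cluster intensities fitted with a binding model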
Test: apparent KD of K4 kissing-loop reporter; higher = weaker reporter binding
Conditions: Eterna round: R107; input ligand: theophylline 20 uM
Listed next: entries and their corresponding apparent KD of K4 kissing-loop reporter.
recorded-endpoint: apparent KD of K4 kissing-loop reporter

INSERT INTO assay_data (sequence_string, observed_value) VALUES
  ('AUUUAAUGUAUAGAUUAUAUACAUUAUUCAGAGGAUAUGCAUUGAAGCAGAAGGCUGGGUGUAGUGAUGUUGCAGUUUUAAUUUA [whbob_SS_FMNA__2th173]', '224 nM'),
  ('AAGCAGUCACUCGACACCAUCGAAGAUGGGCGAGGACCGGUACGGCCGCCACUCGGAGUGAUGUUCUGAUGACUGCAAAAUAAAA [MatMod 9 - Jieux - Exclusion - Tryptophan A]', '158 nM'),
  ('UGAUACCAGACUGAUACCAGCUAGUGAUGUUAGCUGAUAAACAAACAGGCAAAGCCUGCUAGCCCUUGGCAGCAGUCUGGUAUCU [TheoBX 12 #SwitchBubble #StaticStem]', '359 nM');
